Measured Kd by item
target-or-test-system: UniProt:Q13547
Sequence (Q13547 whole entry): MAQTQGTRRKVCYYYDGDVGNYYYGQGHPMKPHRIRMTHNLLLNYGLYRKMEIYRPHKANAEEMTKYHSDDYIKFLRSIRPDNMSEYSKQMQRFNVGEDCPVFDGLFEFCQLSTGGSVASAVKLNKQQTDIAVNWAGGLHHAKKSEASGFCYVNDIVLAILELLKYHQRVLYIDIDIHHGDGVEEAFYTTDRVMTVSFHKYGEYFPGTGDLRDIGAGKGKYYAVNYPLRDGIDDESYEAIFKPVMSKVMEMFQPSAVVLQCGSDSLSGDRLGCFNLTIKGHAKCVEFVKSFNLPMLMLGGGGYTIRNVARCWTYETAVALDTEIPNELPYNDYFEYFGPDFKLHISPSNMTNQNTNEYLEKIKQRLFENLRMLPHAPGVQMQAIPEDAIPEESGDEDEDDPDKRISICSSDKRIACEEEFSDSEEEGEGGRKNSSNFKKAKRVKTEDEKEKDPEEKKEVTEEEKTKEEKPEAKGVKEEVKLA
assay-method-text: Reporter displacement assay (HDAC1)
condition-context: reporter probe displacement, Cheng Prusoff
quantity-kind: Kd

>  <compound>
Nc1ccc(-c2ccc(F)cc2)cc1NC(=O)N1Cc2nccnc2C1

>  <quantity-kind>
Kd

>  <reported>
100 to 500 nM

$$$$
>  <compound>
Nc1ccc(-c2ccncc2)cc1NC(=O)N1CC2CN(C3COC3)CC2C1 (centres unmarked)

>  <quantity-kind>
Kd

>  <reported>
< 100 nM

$$$$
>  <compound>
Nc1ccc(-c2ccc(F)cc2)cc1NC(=O)N1CC2(CCOCC2)C1

>  <quantity-kind>
Kd

>  <reported>
500 to 5000 nM

$$$$
>  <compound>
COc1ccc(-c2ccc(N)c(NC(=O)N3Cc4ccncc4C3)c2)cc1

>  <quantity-kind>
Kd

>  <reported>
< 100 nM

$$$$
>  <compound>
Nc1ccc(-c2ccc(F)cc2)cc1NC(=O)c1cn2c(n1)CCCC2

>  <quantity-kind>
Kd

>  <reported>
100 to 500 nM

$$$$

----------
target-or-test-system: HDAC2 (Homo sapiens (Human))
Sequence (Q92769 whole entry): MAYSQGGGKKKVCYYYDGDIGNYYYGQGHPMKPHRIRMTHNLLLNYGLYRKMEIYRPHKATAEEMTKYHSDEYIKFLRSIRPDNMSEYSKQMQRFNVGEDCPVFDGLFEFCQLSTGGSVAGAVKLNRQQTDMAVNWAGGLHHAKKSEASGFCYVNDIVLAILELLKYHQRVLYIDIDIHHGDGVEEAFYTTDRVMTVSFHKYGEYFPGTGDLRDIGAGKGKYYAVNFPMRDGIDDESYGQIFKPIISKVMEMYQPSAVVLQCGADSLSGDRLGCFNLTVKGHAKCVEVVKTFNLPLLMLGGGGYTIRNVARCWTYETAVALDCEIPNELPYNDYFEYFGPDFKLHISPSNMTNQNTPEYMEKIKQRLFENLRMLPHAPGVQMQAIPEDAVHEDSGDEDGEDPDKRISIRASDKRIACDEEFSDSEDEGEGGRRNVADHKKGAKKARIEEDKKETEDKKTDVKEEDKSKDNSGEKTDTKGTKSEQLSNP
assay-method-text: Reporter displacement assay (HDAC2)
condition-context: reporter probe displacement, Cheng Prusoff
pKd: −log10 of the molar value.
Measured pKd by item
quantity-kind: pKd

>  <molecule>
CC(=O)N1C2CCC1CN(C(=O)Nc1cc(-c3ccc(F)cc3)ccc1N)C2

>  <target-or-test-system>
HDAC2 (Homo sapiens (Human))

>  <reported>
< 5.30

$$$$
>  <molecule>
Cc1cc(F)ccc1-c1ccc(N)c(NC(=O)N2Cc3ccncc3C2)c1

>  <target-or-test-system>
HDAC2 (Homo sapiens (Human))

>  <reported>
< 5.30

$$$$
>  <molecule>
Nc1ccc(-c2ccc(F)c(Cl)c2)cc1NC(=O)N1Cc2ccncc2C1

>  <target-or-test-system>
HDAC2 (Homo sapiens (Human))

>  <reported>
5.30 to 6.30

$$$$
>  <molecule>
NCC(=O)N1CC2CN(C(=O)Nc3cc(-c4ccc(F)cc4)ccc3N)CC2C1 (stereo not shown)

>  <target-or-test-system>
HDAC2 (Homo sapiens (Human))

>  <reported>
5.30 to 6.30

$$$$

----------
target-or-test-system: UniProt Q92769
assay-method-text: Reporter displacement assay (HDAC2)
condition-context: reporter probe displacement, Cheng Prusoff

>  <compound>
CC(C)(C)OC(=O)N1CC2CC1CN2C(=O)Nc1cc(-c2ccncc2)ccc1N (stereo not shown) [Compound 104]

>  <Kd>
> 5000 nM

$$$$
>  <compound>
Nc1ccc(-c2ccc(F)cc2)cc1NC(=O)c1nc2c(s1)CCNC2 [Compound 175]

>  <Kd>
< 100 nM

$$$$
>  <compound>
Nc1ccc(-c2ccc(F)cc2)cc1NC(=O)N1CC2(CCNCC2)C1 [Compound 169]

>  <Kd>
500 to 5000 nM

$$$$
>  <compound>
CC(C)(C)OC(=O)N1C2CCC1CN(C(=O)Nc1cc(-c3ccncc3)ccc1N)C2 [Compound 106]

>  <Kd>
> 5000 nM

$$$$
>  <compound>
Nc1ccc(-c2ccc(F)cc2)cc1NC(=O)N1CC2CCC(C1)N2 [Compound 113]

>  <Kd>
> 5000 nM

$$$$
>  <compound>
CC(C)(C)OC(=O)N1CC2CN(C(=O)Nc3cc(-c4ccc(F)cc4)ccc3N)CC2C1 (stereo not shown) [Compound 124]

>  <Kd>
100 to 500 nM

$$$$
>  <compound>
COC(=O)N1CC2CN(C(=O)Nc3cc(-c4ccc(F)cc4)ccc3N)CC2C1 (stereo not shown) [Compound 154]

>  <Kd>
100 to 500 nM

$$$$
>  <compound>
Nc1ccc(-c2ccc(F)c(F)c2)cc1NC(=O)c1cn2c(n1)CNCC2 [Compound 131]

>  <Kd>
100 to 500 nM

$$$$
>  <compound>
Nc1ccc(-c2cccnc2)cc1NC(=O)N1Cc2ccncc2C1 [Compound 134]

>  <Kd>
100 to 500 nM

$$$$
>  <compound>
Nc1ccc(-c2ccco2)cc1NC(=O)N1Cc2ccncc2C1 [Compound 168]

>  <Kd>
< 100 nM

$$$$
>  <compound>
Nc1ccc(-c2ccc(F)cc2)cc1NC(=O)N1CC2CCC(C1)N2C=O [Compound 117]

>  <Kd>
500 to 5000 nM

$$$$
>  <compound>
CCOC(=O)N1CC2CN(C(=O)Nc3cc(-c4ccc(F)cc4)ccc3N)CC2C1 (stereo not shown) [Compound 155]

>  <Kd>
500 to 5000 nM

$$$$
>  <compound>
CC(=O)N1C2CCC1CN(C(=O)Nc1cc(-c3ccncc3)ccc1N)C2 [Compound 109]

>  <Kd>
> 5000 nM

$$$$

Taken from patent US10421756B2.
